- Tested on: VDR:RXRa (NR concentration 270 nM, RXRa partner concentration 90 nM)
- test: PBM binding z-score (relative to random genomic background probes); higher = stronger binding; sequences stand for … in GC…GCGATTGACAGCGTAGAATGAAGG
reported endpoint: PBM binding z-score
Output: the number by itself.

[
  {
    "residue sequence": "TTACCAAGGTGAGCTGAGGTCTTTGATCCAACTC",
    "experimental system": "VDR:RXRa (NR concentration 270 nM, RXRa partner concentration 90 nM)",
    "PBM binding z-score": 0.497
  },
  {
    "residue sequence": "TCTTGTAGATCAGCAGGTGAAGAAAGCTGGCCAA",
    "experimental system": "VDR:RXRa (NR concentration 270 nM, RXRa partner concentration 90 nM)",
    "PBM binding z-score": 0.208
  },
  {
    "residue sequence": "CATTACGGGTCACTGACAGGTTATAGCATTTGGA",
    "experimental system": "VDR:RXRa (NR concentration 270 nM, RXRa partner concentration 90 nM)",
    "PBM binding z-score": 4
  },
  {
    "residue sequence": "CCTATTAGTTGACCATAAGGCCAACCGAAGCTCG",
    "experimental system": "VDR:RXRa (NR concentration 270 nM, RXRa partner concentration 90 nM)",
    "PBM binding z-score": 0.724
  },
  {
    "residue sequence": "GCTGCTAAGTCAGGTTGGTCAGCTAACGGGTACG",
    "experimental system": "VDR:RXRa (NR concentration 270 nM, RXRa partner concentration 90 nM)",
    "PBM binding z-score": -0.547
  },
  {
    "residue sequence": "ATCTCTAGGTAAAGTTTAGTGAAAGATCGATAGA",
    "experimental system": "VDR:RXRa (NR concentration 270 nM, RXRa partner concentration 90 nM)",
    "PBM binding z-score": 0.28
  }
]

Prompt: Specify measured PBM binding z-score for "TCTAGCAGGCCAGAGGGTCACTGAAGAGGTACGG" .
Response: 1.52

Prompt: Please give the documented PBM binding z-score of "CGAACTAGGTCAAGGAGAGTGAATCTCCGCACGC"
Response: 1.33
